Numbers sourced from patent US20240360228A1.

biological target: T1, human CCR8 (human, UniProt P51685 1-355); test: flow blocking, PBMC CCR8+CD3+; competitor PE-AB6
T1 construct: Native CCR8 on human PBMC (CCR8+ CD3+ or CCR8+ CD4+ lymphocytes); also called chemokine (C-C motif) receptor 8
T1 sequence (P51685 whole entry): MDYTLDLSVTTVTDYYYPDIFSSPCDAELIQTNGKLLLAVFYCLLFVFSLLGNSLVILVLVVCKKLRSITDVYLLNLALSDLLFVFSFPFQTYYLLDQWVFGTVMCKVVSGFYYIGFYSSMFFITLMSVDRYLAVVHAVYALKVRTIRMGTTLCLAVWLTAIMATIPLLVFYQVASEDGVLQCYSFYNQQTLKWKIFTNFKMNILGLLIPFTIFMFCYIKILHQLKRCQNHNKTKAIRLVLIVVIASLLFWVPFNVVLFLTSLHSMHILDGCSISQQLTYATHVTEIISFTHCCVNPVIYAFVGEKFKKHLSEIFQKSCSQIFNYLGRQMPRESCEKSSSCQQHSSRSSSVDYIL
Record form. Attribute: MFI. Fill in for each entry.
I only need the number, thanks.

Data request: Give the measured MFI of AB6 (antibody, V domains shown, Hybridoma monoclonal; Same VH/VL entries as AB5; also called antibody 6; clone 6) VH: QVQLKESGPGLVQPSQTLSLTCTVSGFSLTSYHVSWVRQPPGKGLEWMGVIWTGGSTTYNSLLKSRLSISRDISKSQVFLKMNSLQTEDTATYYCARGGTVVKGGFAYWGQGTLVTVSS VL: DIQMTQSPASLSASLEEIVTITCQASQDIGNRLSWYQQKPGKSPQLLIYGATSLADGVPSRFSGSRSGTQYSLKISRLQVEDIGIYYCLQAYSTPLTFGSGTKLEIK .
Data returned: 969

Data request: Give the measured MFI of AB10 (antibody, V domains shown, Hybridoma monoclonal; also called antibody 10; clone 10) VH: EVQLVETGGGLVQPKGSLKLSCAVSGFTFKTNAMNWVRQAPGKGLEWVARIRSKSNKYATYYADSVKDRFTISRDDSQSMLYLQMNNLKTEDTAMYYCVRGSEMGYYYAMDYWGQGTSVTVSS VL: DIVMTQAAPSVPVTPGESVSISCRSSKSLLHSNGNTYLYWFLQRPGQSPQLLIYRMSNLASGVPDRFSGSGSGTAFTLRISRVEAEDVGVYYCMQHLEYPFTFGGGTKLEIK .
Data returned: 1170
